Give AC50 for every item shown.
Just the number in µM, nothing appended.

Give reported AC50 for Oc1ccc2c(c1)CC[C@H](c1ccccc1)[C@@H]2c1ccc(OCCN2CCCC2)cc1 (Adenosine receptor A3 (Homo sapiens, UniProt P0DMS8))
5.8

Give reported AC50 for CC(=O)[C@]1(O)Cc2c(O)c3c(c(O)c2[C@@H](O[C@H]2C[C@H](N)[C@H](O)[C@H](C)O2)C1)C(=O)c1ccccc1C3=O (Adenosine receptor A3 (Homo sapiens, UniProt P0DMS8))
20

Give reported AC50 for COc1cc2ncnc(Nc3ccc(F)c(Cl)c3)c2cc1NC(=O)/C=C/CN1CCCCC1 [DACOMITINIB ANHYDROUS] (Adenosine receptor A3 (Homo sapiens, UniProt P0DMS8))
21

----------
assayedTarget: 5-hydroxytryptamine receptor 1A (Homo sapiens); note: assay procedure not described here
Sequence (P08908 whole entry): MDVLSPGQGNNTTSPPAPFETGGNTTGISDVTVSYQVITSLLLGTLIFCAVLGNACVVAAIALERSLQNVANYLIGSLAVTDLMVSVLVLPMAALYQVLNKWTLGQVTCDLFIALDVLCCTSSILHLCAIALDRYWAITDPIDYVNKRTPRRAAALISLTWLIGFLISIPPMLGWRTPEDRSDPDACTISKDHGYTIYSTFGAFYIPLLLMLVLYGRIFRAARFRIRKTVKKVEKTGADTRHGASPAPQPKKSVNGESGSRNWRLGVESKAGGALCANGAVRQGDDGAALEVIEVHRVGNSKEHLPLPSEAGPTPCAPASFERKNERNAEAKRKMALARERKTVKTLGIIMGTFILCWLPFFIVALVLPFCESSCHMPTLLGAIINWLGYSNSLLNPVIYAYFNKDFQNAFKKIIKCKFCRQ
Type: functional, cell-based
Give AC50 for every item shown.

Give the reported value of AC50 for this record: CNC1=Nc2ccc(Cl)cc2C(c2ccccc2)=[N+]([O-])C1 [CHLORDIAZEPOXIDE]
> 30 µM

Give the reported value of AC50 for this record: O=[N+]([O-])c1ccc(O)c2ncccc12
> 30 µM

Give the reported value of AC50 for this record: CCN(CC)CCNC(=O)c1cc(S(C)(=O)=O)ccc1OC [TIAPRIDE]
> 30 µM

Give the reported value of AC50 for this record: OCc1cc(C(O)CNCCCCCCOCCCCc2ccccc2)ccc1O (stereo not given)
5.4 µM

Give the reported value of AC50 for this record: Nc1ncn([C@H]2C[C@H](O)[C@@H](CO)O2)c(=O)n1
> 30 µM

Give the reported value of AC50 for this record: C#CCOc1ccc(N)cc1C(=O)NCCCC [PARSALMIDE]
> 30 µM

Give the reported value of AC50 for this record: CN(C)CCC[C@@]1(c2ccc(F)cc2)OCc2cc(C#N)ccc21
> 30 µM

Give the reported value of AC50 for this record: [H]/N=C(/N)N/C(=N/[H])NCCc1ccccc1
> 30 µM

Give the reported value of AC50 for this record: O=C1CN=C(c2ccccn2)c2cc(Br)ccc2N1
> 10 µM

Give the reported value of AC50 for this record: C[N@+]1(CCF)[C@@H]2CC[C@H]1C[C@@H](OC(=O)C(O)(c1ccccc1)c1ccccc1)C2
> 30 µM

----------
Give AC50 for every item shown.
assayedTarget: Amine oxidase [flavin-containing] A (Homo sapiens); note: assay procedure not described here
Sequence (P21397 whole entry): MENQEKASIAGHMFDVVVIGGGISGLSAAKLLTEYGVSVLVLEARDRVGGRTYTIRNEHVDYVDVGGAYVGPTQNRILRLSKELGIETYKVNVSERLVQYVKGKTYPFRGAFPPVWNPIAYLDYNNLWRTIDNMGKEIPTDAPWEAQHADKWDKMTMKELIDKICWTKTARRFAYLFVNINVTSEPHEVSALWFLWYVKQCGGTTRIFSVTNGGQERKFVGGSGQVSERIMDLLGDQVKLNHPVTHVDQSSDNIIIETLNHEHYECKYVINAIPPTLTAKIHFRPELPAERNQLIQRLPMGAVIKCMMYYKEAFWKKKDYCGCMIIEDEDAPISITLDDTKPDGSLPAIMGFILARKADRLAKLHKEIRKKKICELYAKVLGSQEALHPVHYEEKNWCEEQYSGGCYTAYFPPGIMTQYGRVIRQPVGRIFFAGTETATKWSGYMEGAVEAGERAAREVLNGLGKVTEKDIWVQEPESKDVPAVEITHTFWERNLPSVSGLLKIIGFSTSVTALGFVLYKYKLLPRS
Type: functional

Give the reported value of AC50 for this record: COc1ccccc1Oc1c(NS(=O)(=O)c2ccc(C(C)(C)C)cc2)nc(-c2ncccn2)nc1OCCO
> 10 µM

Give the reported value of AC50 for this record: CCOC(=O)O[C@]1(C(=O)OCCl)CC[C@H]2[C@@H]3CCC4=CC(=O)C=C[C@]4(C)[C@H]3[C@@H](O)C[C@@]21C [LOTEPREDNOL ETABONATE]
> 30 µM

Give the reported value of AC50 for this record: COc1cc2c(cc1OC)C(CCc1ccc(Cl)cc1)N(C)CC2 (centres undefined)
11 µM

Give the reported value of AC50 for this record: C[C@]12C=CC(=O)N[C@@H]1CC[C@@H]1[C@@H]2CC[C@]2(C)[C@@H](C(=O)Nc3cc(C(F)(F)F)ccc3C(F)(F)F)CC[C@@H]12 [DUTASTERIDE]
> 10 µM

----------
reportedMetric: AC50

Give reported AC50 for C[C@]12CCC(=O)C(O)=C1CC[C@@H]1[C@@H]2CC[C@]2(C)C(=O)CC[C@@H]12 (Gamma-aminobutyric acid receptor subunit alpha-1 (Rattus norvegicus))
> 30 µM

Give reported AC50 for CC(=O)O[C@]1(C(C)=O)CC[C@H]2[C@@H]3C=C(C)C4=CC(=O)CC[C@@H]4[C@H]3CC[C@@]21C [NOMEGESTROL ACETATE] (Gamma-aminobutyric acid receptor subunit alpha-1 (Rattus norvegicus))
> 30 µM

Give reported AC50 for CCOC(=O)C1=C(C)NC(C)=C(C(=O)OC)C1c1cccc([N+](=O)[O-])c1 (configuration not stated) (Gamma-aminobutyric acid receptor subunit alpha-1 (Rattus norvegicus))
> 10 µM

Give reported AC50 for Clc1ccc2c(N3CCN(CCCN4CCN(c5ccnc6cc(Cl)ccc56)CC4)CC3)ccnc2c1 (Gamma-aminobutyric acid receptor subunit alpha-1 (Rattus norvegicus))
> 30 µM

Give reported AC50 for C[C@H](Cc1ccc(O)c(O)c1)[C@@H](C)Cc1ccc(O)c(O)c1 (Gamma-aminobutyric acid receptor subunit alpha-1 (Rattus norvegicus))
> 10 µM

Give reported AC50 for CC(=O)SC[C@@H](C)C(=O)N1CCC[C@H]1C(=O)N[C@@H](Cc1ccccc1)C(=O)O (Gamma-aminobutyric acid receptor subunit alpha-1 (Rattus norvegicus))
> 30 µM

Give reported AC50 for C[C@]12CC[C@@H]3c4ccc(O)cc4C[C@@H](CCCCCCCCC[S+]([O-])CCCC(F)(F)C(F)(F)F)[C@H]3[C@@H]1CC[C@@H]2O (some centres not stated) (Gamma-aminobutyric acid receptor subunit alpha-1 (Rattus norvegicus))
> 30 µM

----------
// each record: one item and its AC50 for Alpha-2B adrenergic receptor (Homo sapiens, UniProt P18089)

Give reported AC50 for CC[C@@H]([C@H](C)O)n1ncn(-c2ccc(N3CCN(c4ccc(OC[C@@H]5CO[C@@](Cn6cncn6)(c6ccc(F)cc6F)C5)cc4)CC3)cc2)c1=O (Alpha-2B adrenergic receptor (Homo sapiens, UniProt P18089))
> 30 µM

Give reported AC50 for Nc1ncn([C@H]2C[C@H](O)[C@@H](CO)O2)c(=O)n1 (Alpha-2B adrenergic receptor (Homo sapiens, UniProt P18089))
> 30 µM

Give reported AC50 for C/N=C(\NC)NCc1ccccc1 (Alpha-2B adrenergic receptor (Homo sapiens, UniProt P18089))
> 30 µM

Give reported AC50 for CC(C(=O)O)c1ccc2c(c1)[nH]c1ccc(Cl)cc12 (stereo not drawn) (Alpha-2B adrenergic receptor (Homo sapiens, UniProt P18089))
> 10 µM

Give reported AC50 for CC(S)C(=O)NCC(=O)O (stereo not drawn) (Alpha-2B adrenergic receptor (Homo sapiens, UniProt P18089))
> 30 µM

Give reported AC50 for N[C@@H](CC(=O)N1CCn2c(nnc2C(F)(F)F)C1)Cc1cc(F)c(F)cc1F (Alpha-2B adrenergic receptor (Homo sapiens, UniProt P18089))
> 30 µM

Give reported AC50 for C=C1/C(=C\C=C2/CCC[C@]3(C)[C@@H]([C@H](C)/C=C/[C@@H](O)C4CC4)CC[C@@H]23)C[C@@H](O)C[C@@H]1O (Alpha-2B adrenergic receptor (Homo sapiens, UniProt P18089))
> 30 µM

Give reported AC50 for CCOC(=O)c1cncn1[C@H](C)c1ccccc1 [ETOMIDATE] (Alpha-2B adrenergic receptor (Homo sapiens, UniProt P18089))
> 10 µM

----------
reportedMetric: AC50

Give reported AC50 for O=C1CN=C(c2ccccn2)c2cc(Br)ccc2N1 [BROMAZEPAM] (Mu-type opioid receptor (Homo sapiens))
> 30 µM

Give reported AC50 for CC(C)c1nc(N(C)S(C)(=O)=O)nc(-c2ccc(F)cc2)c1/C=C/[C@@H](O)C[C@@H](O)CC(=O)O [ROSUVASTATIN] (Mu-type opioid receptor (Homo sapiens))
> 30 µM

Give reported AC50 for COc1cc2c(cc1OC)C(CCc1ccc(Cl)cc1)N(C)CC2 (configuration not stated) [METHOPHOLINE] (Mu-type opioid receptor (Homo sapiens))
> 30 µM

Give reported AC50 for CCN(CC)CCNC(=O)c1c(C)[nH]c(/C=C2\C(=O)Nc3ccc(F)cc32)c1C [SUNITINIB] (Mu-type opioid receptor (Homo sapiens))
4.9 µM

Give reported AC50 for CN(C)CCc1c[nH]c2ccc(Cn3cncn3)cc12 [RIZATRIPTAN] (Mu-type opioid receptor (Homo sapiens))
> 10 µM

Give reported AC50 for CO[C@H]1/C=C/O[C@@]2(C)Oc3c(C)c(O)c4c(O)c(c(/C=N/N5CCN(C)CC5)c(O)c4c3C2=O)NC(=O)/C(C)=C\C=C\[C@H](C)[C@H](O)[C@@H](C)[C@@H](O)[C@@H](C)[C@H](OC(C)=O)[C@@H]1C [RIFAMPIN] (Mu-type opioid receptor (Homo sapiens))
8 µM

Give reported AC50 for C/C(=C\C(=O)OCCCCCCCCC(=O)O)C[C@@H]1OC[C@H](C[C@@H]2O[C@H]2[C@@H](C)[C@H](C)O)[C@@H](O)[C@H]1O [MUPIROCIN] (Mu-type opioid receptor (Homo sapiens))
> 30 µM

Give reported AC50 for CC12CC3CC(C)(C1)CC(N)(C3)C2 [MEMANTINE] (Mu-type opioid receptor (Homo sapiens))
> 10 µM

Give reported AC50 for Cc1onc(-c2ccccc2)c1-c1ccc(S(N)(=O)=O)cc1 [VALDECOXIB] (Mu-type opioid receptor (Homo sapiens))
> 30 µM

Give reported AC50 for CC(S)C(=O)NCC(=O)O (configuration not stated) [TIOPRONIN] (Mu-type opioid receptor (Homo sapiens))
> 30 µM

Give reported AC50 for COc1ccccc1OCCNCC(O)COc1cccc2[nH]c3ccccc3c12 (configuration not stated) [CARVEDILOL] (Mu-type opioid receptor (Homo sapiens))
1.7 µM

Give reported AC50 for CC(N)C(O)c1ccccc1 (configuration not stated) [PHENYLPROPANOLAMINE] (Mu-type opioid receptor (Homo sapiens))
> 10 µM

Give reported AC50 for CC(C)(C)C(=O)OCC(=O)[C@H]1CC[C@H]2[C@@H]3CCC4=CC(=O)CC[C@]4(C)[C@H]3CC[C@]12C [DESOXYCORTICOSTERONE PIVALATE] (Mu-type opioid receptor (Homo sapiens))
> 30 µM

Give reported AC50 for N[C@@H](CC(=O)N1CCn2c(nnc2C(F)(F)F)C1)Cc1cc(F)c(F)cc1F [SITAGLIPTIN] (Mu-type opioid receptor (Homo sapiens))
> 30 µM

Give reported AC50 for CC(C)N(CCC(C(N)=O)(c1ccccc1)c1ccccn1)C(C)C (configuration not stated) [DISOPYRAMIDE] (Mu-type opioid receptor (Homo sapiens))
> 30 µM

Give reported AC50 for CCCN[C@H]1CCc2nc(N)sc2C1 [PRAMIPEXOLE] (Mu-type opioid receptor (Homo sapiens))
> 30 µM

Give reported AC50 for Cc1noc(NS(=O)(=O)c2ccc(N)cc2)c1C [SULFISOXAZOLE] (Mu-type opioid receptor (Homo sapiens))
> 30 µM

Measured values drawn from ChEMBL document CHEMBL5291721 for this set.
